The measured values listed here are drawn from patent US20250250357A1.

# TARGET DESC: T1, human MSLN-R1-his protein (human, UniProt Q13421 296-390)
# T1 construct: Made in HEK293E cells, purified on nickel column; also called hMSLN-R1-his; human MSLN-R1 protein; not shown: His tag
# T1 chain: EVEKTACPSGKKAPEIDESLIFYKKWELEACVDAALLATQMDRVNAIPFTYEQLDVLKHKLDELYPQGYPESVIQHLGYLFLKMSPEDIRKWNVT
# TEST METHOD NOTES: ELISA, coated antigen, antibody 0.0002 nM
Recorded OD450 by entry
I only need the number, thanks.

- BINDER: "S009-F7.53.2 chimeric antibody (antibody, human IgG1, kappa, V domains shown, Human-murine chimeric antibody, human IgG1/kappa constant regions) VH: EVQLQQSGPELVKPGASVKIPCKTSGYTFTDYNMDWVKQSHGKSLEWIGDINPNTDGAIYNQKFQNKATLTVDKSSSTAYMELRSLTSEDTAVYYCTRRKLGRKFFDYWGQGTTLTVSS VL: QIVLTQSPAIMSASPGEQVTMTCSASSSVGYMNWYQQKPGSSPRLLIYDTSNLASGVPVHFSGSGSGTSYSLTISRMEAAFAATYYCQQWYVYPYTFGGGTKLEIKR"
  RECORDED METRIC: "OD450"
  DATA VALUE: 0.05
- BINDER: "S009-F7.44.20 chimeric antibody (antibody, human IgG1, kappa, V domains shown, Human-murine chimeric antibody, human IgG1/kappa constant regions) VH: EVQLQQSGPELVKPGASVKIPCKASGYTFTDYNMDWVKQSHGKSLEWIGDINPSTGGTIYNQKFNGKATLTEDKSASTVYMEFRSLTSDDTAVYYCARRRIGTGYFDVWGTGTTVTVSS VL: QIVLTQSPALMSASPGEKVTLTCSASSSVISSYLSWYQQKPGSSPKLLIYRTSNLASGVPARFSGSGSGTSYSLTISSMEAEDAASYFCHQWSSFPYTFGGGTKLEIKR"
  RECORDED METRIC: "OD450"
  DATA VALUE: 0.04

Query :: Quick one: OD450 for S009-F7.21.16 chimeric antibody (antibody, human IgG1, kappa, V domains shown, Human-murine chimeric antibody, human IgG1/kappa constant regions) VH: QVQLQQPGTELVKPGASVKLSCKASGYTFTTFWMHWVKQRPGQGLEWIGGVNPTNGGTNYNEKFRTKATLTVDKSSTTADMQLSSLTSEDSAVYYCAPHYISSRPGFAYWGQGTLVTVSG VL: DIVMTQSQKFMSTSGGDRVSVTCKASQNVGTNVAWYQQKPGQSPKALIYSASYRYSGVPDRFTGSGSGTDFILTISNVQSEDLAEYFCQQYNSYPLTFGGGTKLEIKR ?
Result :: 0.04
